target: Vasopressin V1a receptor (Homo sapiens, UniProt P37288); assay: Inhibition of 1 nM AVP-induced calcium mobilisation in cells expressing human vasopressin V1a receptor
Sequence (P37288 whole entry): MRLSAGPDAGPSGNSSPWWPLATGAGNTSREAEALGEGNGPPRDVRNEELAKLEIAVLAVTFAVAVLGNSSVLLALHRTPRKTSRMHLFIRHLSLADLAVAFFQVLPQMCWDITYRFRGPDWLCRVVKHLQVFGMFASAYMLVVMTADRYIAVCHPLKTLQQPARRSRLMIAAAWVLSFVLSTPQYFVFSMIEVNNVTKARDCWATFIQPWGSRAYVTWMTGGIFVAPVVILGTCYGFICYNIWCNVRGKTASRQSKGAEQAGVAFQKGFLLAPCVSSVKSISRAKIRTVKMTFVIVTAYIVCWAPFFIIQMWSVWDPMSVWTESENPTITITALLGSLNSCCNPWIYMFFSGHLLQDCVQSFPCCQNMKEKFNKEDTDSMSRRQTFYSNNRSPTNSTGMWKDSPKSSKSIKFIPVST
pKi: −log10 of the molar value.
MEASUREMENT_TYPE: pKi

Consider the worked cases shown below.
compound=O=C(Nc1ccc(C(=O)N2C[C@@H]3CSCCN3Cc3ccccc32)cc1)c1ccccc1-c1ccccc1 experimental_system="Vasopressin V1a receptor (Homo sapiens, UniProt P37288)" measurement_type=pKi observed_result=5.89
compound=O=C(Nc1ccc(C(=O)N2C[C@H]3COCCN3Cc3ccccc32)c(Cl)c1)c1ccccc1-c1ccccc1 experimental_system="Vasopressin V1a receptor (Homo sapiens, UniProt P37288)" measurement_type=pKi observed_result=6.22
compound=Cc1ccc(F)cc1C(=O)Nc1ccc(C(=O)N2Cc3cccn3Cc3ccccc32)c(Cl)c1 experimental_system="Vasopressin V1a receptor (Homo sapiens, UniProt P37288)" measurement_type=pKi observed_result=5.22

[a] O=C(Nc1ccc(C(=O)N2C[C@H]3COCCN3Cc3ccccc32)c(Cl)c1)c1ccccc1-c1ccc(O)cc1
[b] O=C(Nc1ccc(C(=O)N2C[C@H]3CSCCN3Cc3ccccc32)c(Cl)c1)c1ccccc1-c1ccccc1
Challenge: When the recorded pKi values are compared, which is smaller: that of a or that of b ? Give the label of your selection.
Response given: b

[P] O=C(Nc1ccc(C(=O)N2CC3CSCCN3Cc3ccccc32)c(Cl)c1)c1cc(F)ccc1-c1ccccc1 (stereo not drawn)
[Q] O=C(Nc1ccc(C(=O)N2CC3CS(=O)(=O)CCN3Cc3ccccc32)cc1)c1ccccc1-c1ccccc1 (stereo not drawn)
[R] O=C(Nc1ccc(C(=O)N2CC3CSCCN3Cc3ccccc32)cc1)c1ccccc1-c1ccccc1 (stereo not drawn)
Challenge: Arrange items by their pKi values in increasing order. Provide the ranking by listing each label in its place in the requested order.
Response given: P, R, Q

* * *

target: Vasopressin V2 receptor (Homo sapiens, UniProt P30518); assay: Inhibition of 1 nM AVP-induced cAMP accumulation in cells expressing human vasopressin V2 receptor; type: functional
Sequence (P30518 whole entry): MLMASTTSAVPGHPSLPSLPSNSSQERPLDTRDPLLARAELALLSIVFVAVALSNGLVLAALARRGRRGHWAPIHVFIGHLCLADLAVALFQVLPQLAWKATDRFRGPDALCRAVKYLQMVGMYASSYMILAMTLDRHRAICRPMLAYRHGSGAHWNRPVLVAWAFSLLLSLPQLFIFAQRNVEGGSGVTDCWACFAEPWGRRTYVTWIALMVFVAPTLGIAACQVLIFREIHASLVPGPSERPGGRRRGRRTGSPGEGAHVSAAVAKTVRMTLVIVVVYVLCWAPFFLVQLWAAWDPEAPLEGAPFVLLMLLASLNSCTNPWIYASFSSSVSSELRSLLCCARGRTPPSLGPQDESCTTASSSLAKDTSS
pKi: −log10 of the molar value.
MEASUREMENT_TYPE: pKi

[P] O=C(Nc1ccc(C(=O)N2CC3CS(=O)(=O)CCN3Cc3ccccc32)cc1)c1ccccc1-c1ccccc1 (stereo not drawn)
[Q] Cc1ccc2c(c1)N(C(=O)c1ccc(NC(=O)c3ccccc3-c3ccccc3)cc1)CC1CSCCN1C2 (stereo not drawn)
[R] O=C(Nc1ccc(C(=O)N2C[C@H]3COCCN3Cc3ccccc32)c(Cl)c1)c1ccccc1-c1ccccc1
Challenge: Would you mind ranking these compounds by ascending pKi? Provide the ranking by listing each label in its place in the requested order.
Response given: P, Q, R

* * *

biological target: Vasopressin V1a receptor (Homo sapiens, UniProt P37288); assay: Inhibition of 1 nM AVP-induced calcium mobilisation in cells expressing human vasopressin V1a receptor
pKi: −log10 of the molar value.
MEASUREMENT_TYPE: pKi

Consider the worked cases shown below.
compound=O=C(Nc1ccc(C(=O)N2C[C@H]3COCCN3Cc3ccccc32)c(Cl)c1)c1ccccc1-c1cccc(O)c1 observed_result=4.96
compound=O=C(Nc1ccc(C(=O)N2C[C@H]3COCCN3Cc3ccccc32)c(Cl)c1)c1cc(O)ccc1-c1ccccc1 observed_result=5.72
compound="Cc1ccc(F)cc1C(=O)Nc1ccc(C(=O)N2CC3CSCCN3Cc3ccccc32)c(Cl)c1 (stereo not drawn)" observed_result=4.85

[a] O=C(Nc1ccc(C(=O)N2CC3COCCN3Cc3ccccc32)c(Cl)c1)c1ccccc1-c1ccccc1 (single isomer, unassigned)
[b] COc1ccc(-c2ccccc2C(=O)Nc2ccc(C(=O)N3C[C@H]4COCCN4Cc4ccccc43)c(Cl)c2)cc1
[c] COc1cccc(-c2ccccc2C(=O)Nc2ccc(C(=O)N3C[C@H]4COCCN4Cc4ccccc43)c(Cl)c2)c1
Challenge: hey, can you rank those compounds up there by pKi? biggest number first please Provide the ranking by listing each label in its place in the requested order.
Response given: b, c, a
(b: 5.72, c: 5.47, a: 4.85)

* * *

target: Vasopressin V2 receptor (Homo sapiens, UniProt P30518); assay: Inhibition of [3H]AVP binding to recombinant human vasopressin V2 receptor
MEASUREMENT_TYPE: Ki (µM)

[P] Cc1cc(NC(=O)c2ccccc2-c2ccccc2)ccc1C(=O)N1CC2CSCCN2Cc2ccccc21 (stereo unspecified)
[Q] O=C(Nc1ccc(C(=O)N2C[C@H]3COCCN3Cc3ccccc32)c(Cl)c1)c1ccccc1-c1cccc(O)c1
Challenge: When the recorded Ki values are compared, which is smaller: that of P or that of Q ? Give the label of your selection.
Response given: Q
(Q: 0.005 µM, P: 0.01 µM)

* * *

target: UniProtKB P30518; assay: Inhibition of [3H]AVP binding to recombinant human vasopressin V2 receptor
MEASUREMENT_TYPE: Ki (nM)

molecule="O=C(Nc1ccc(C(=O)N2CC3CSCCN3Cc3ccccc32)c(Cl)c1)c1cc(F)ccc1-c1ccccc1 (configuration not stated)" observed_result=37
molecule=O=C(Nc1ccc(C(=O)N2C[C@H]3CSCCN3Cc3ccccc32)c(Cl)c1)c1ccccc1-c1ccccc1 observed_result=3.7

[a] COc1cccc(-c2ccccc2C(=O)Nc2ccc(C(=O)N3C[C@H]4COCCN4Cc4ccccc43)c(Cl)c2)c1
[b] O=C(Nc1ccc(C(=O)N2CC3CSCCN3Cc3ccc(F)c(F)c32)cc1)c1ccccc1-c1ccccc1 (configuration not stated)
Challenge: Form field 'greater Ki' accepts a or b ; which applies? Give the label of your selection.
Response given: b
(b: 18 nM, a: 3.7 nM)

* * *

target: Vasopressin V1a receptor (Homo sapiens); experiment: Inhibition of [3H]AVP binding to recombinant human vasopressin V1a receptor
MEASUREMENT_TYPE: Ki (nM)

Consider the worked cases shown below.
compound="O=C(Nc1ccc(C(=O)N2CC3CSCCN3Cc3ccccc32)cc1)c1ccccc1-c1ccccc1 (stereo not drawn)" experimental_system="Vasopressin V1a receptor (Homo sapiens)" measurement_type=Ki unit_label=nM observed_result=49
compound="O=C(Nc1ccc(C(=O)N2CC3COCCN3Cc3ccccc32)c(Cl)c1)c1ccccc1-c1ccccc1 (single isomer, unassigned)" experimental_system="Vasopressin V1a receptor (Homo sapiens)" measurement_type=Ki unit_label=nM observed_result=640
compound="O=C(Nc1ccc(C(=O)N2CC3CSCCN3Cc3ccccc32)c(Cl)c1)c1ccccc1-c1ccccc1 (stereo not drawn)" experimental_system="Vasopressin V1a receptor (Homo sapiens)" measurement_type=Ki unit_label=nM observed_result=490

[1] O=C(Nc1ccc(C(=O)N2CC3CSCCN3Cc3ccccc32)c(Cl)c1)c1ccc(F)cc1-c1ccccc1 (stereo not drawn)
[2] O=C(Nc1ccc(C(=O)N2C[C@H]3CSCCN3Cc3ccccc32)cc1)c1ccccc1-c1ccccc1
[3] Cc1ccc(F)cc1C(=O)Nc1ccc(C(=O)N2Cc3cccn3Cc3ccccc32)c(Cl)c1
[4] O=C(Nc1ccc(C(=O)N2C[C@H]3COCCN3Cc3ccccc32)c(Cl)c1)c1ccc(O)cc1-c1ccccc1
Challenge: hey, can you rank those compounds up there by Ki? biggest number first please Provide the ranking by listing each label in its place in the requested order.
Response given: 1, 2, 3, 4
(1: 410 nM, 2: 84 nM, 3: 44 nM, 4: 30 nM)

* * *

target: Vasopressin V1a receptor (Homo sapiens); experiment: Inhibition of [3H]AVP binding to recombinant human vasopressin V1a receptor
MEASUREMENT_TYPE: Ki

Consider the worked cases shown below.
compound="O=C(Nc1ccc(C(=O)N2CC3CSCCN3Cc3ccccc32)c(F)c1)c1ccccc1-c1ccccc1 (configuration not stated)" observed_result="Not Active"
compound="O=C(Nc1ccc(C(=O)N2CC3CSCCN3Cc3ccccc32)c(O)c1)c1ccccc1-c1ccccc1 (configuration not stated)" observed_result="110 nM"
compound=O=C(Nc1ccc(C(=O)N2C[C@H]3CSCCN3Cc3ccccc32)c(Cl)c1)c1ccccc1-c1ccccc1 observed_result="250 nM"
compound=O=C(Nc1ccc(C(=O)N2C[C@@H]3CSCCN3Cc3ccccc32)cc1)c1ccccc1-c1ccccc1 observed_result="290 nM"
compound=COc1ccc(C(=O)Nc2ccc(C(=O)N3C[C@H]4COCCN4Cc4ccccc43)c(Cl)c2)c(-c2ccccc2)c1 observed_result="Not Active"

Recorded Ki (compound Cc1ccc(F)cc1C(=O)Nc1ccc(C(=O)N2CC3CSCCN3Cc3ccccc32)c(Cl)c1 (configuration not stated) ): Not Active

Recorded Ki (compound COc1cc(NC(=O)c2ccccc2-c2ccccc2)ccc1C(=O)N1CC2CSCCN2Cc2ccccc21 (configuration not stated) ): Not Active

Recorded Ki (compound O=C(Nc1ccc(C(=O)N2CC3CS(=O)(=O)CCN3Cc3ccccc32)cc1)c1ccccc1-c1ccccc1 (configuration not stated) ): Not Active

* * *

target: Vasopressin V1a receptor (Homo sapiens); assay: Inhibition of 1 nM AVP-induced calcium mobilisation in cells expressing human vasopressin V1a receptor
MEASUREMENT_TYPE: Ki (nM)

Consider the worked cases shown below.
molecule="Cc1ccc2c(c1)N(C(=O)c1ccc(NC(=O)c3ccccc3-c3ccccc3)cc1)CC1CSCCN1C2 (stereo not given)" observed_result=14000
molecule=O=C(Nc1ccc(C(=O)N2C[C@H]3COCCN3Cc3ccccc32)c(Cl)c1)c1cc(F)ccc1-c1ccccc1 observed_result=6400
molecule=O=C(Nc1ccc(C(=O)N2C[C@H]3COCCN3Cc3ccccc32)c(Cl)c1)c1ccc(O)cc1-c1ccccc1 observed_result=1600

[a] O=C(Nc1ccc(C(=O)N2C[C@H]3CSCCN3Cc3ccccc32)cc1)c1ccccc1-c1ccccc1
[b] O=C(Nc1ccc(C(=O)N2C[C@H]3COCCN3Cc3ccccc32)c(Cl)c1)c1ccc(F)cc1-c1ccccc1
Challenge: Form field 'greater Ki' accepts a or b ; which applies? Give the label of your selection.
Response given: a
(a: 1400 nM, b: 700 nM)
